// provenance: patent US20180305450A1

target: T1, recombinant biotinylated human PAR2 extracellular domain (residues 1-75), N-terminal AviTag, C-terminal Flag … (human, UniProt P55085 26-75, biotin on the AviTag (enzymatic biotinylation)); assay: HTRF competition with Par0067 IgG, pH 7.4, scFv
T1 construct: also called Bio-human-PAR2 ECD; human PAR2 ECD; not shown: N-terminal AviTag (Avidity LLC); C-terminal Flag and poly Histidine tags
T1 sequence (P55085 26-75): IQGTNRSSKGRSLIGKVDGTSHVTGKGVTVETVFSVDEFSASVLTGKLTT
Property Label: IC50 (nM)
Give the value, in units of nM, as a plain number.

Lookup result for PaB670100 scFv (scFv, V domains shown, purified scFv) VH: EVQLLESGGGLVQPGGSLRLSCAASGFTFSSYAMNWVRQAPGKGLEWVSTISYHGHHISHAHHVHGRFTISRDNSKNTLYLQMNSLRAEDTAVYYCARINNDPMDVWGQGTLVTVSS VL: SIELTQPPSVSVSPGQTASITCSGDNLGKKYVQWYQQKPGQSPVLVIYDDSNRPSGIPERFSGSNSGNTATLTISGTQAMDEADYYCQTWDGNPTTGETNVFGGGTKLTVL ; measured IC50: 20.3

Lookup result for PaB670098 scFv (scFv, V domains shown, purified scFv; also called ZZ1ODT-G01) VH: EVQLLESGGGLVQPGGSLRLSCAASGFTFSSYAMNWVRQAPGKGLEWVSTISHSGHLHHYADSHKHRFTISRDNSKNTLYLQMNSLRAEDTAVYYCARINNDPMDVWGQGTLVTVSS VL: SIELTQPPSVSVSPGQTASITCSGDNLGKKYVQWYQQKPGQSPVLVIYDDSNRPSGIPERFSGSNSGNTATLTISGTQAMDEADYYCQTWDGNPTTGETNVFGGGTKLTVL ; measured IC50: 65.9
